Target: FGFR1 (UniProt P11362)
Sequence (P11362 whole entry, looked up): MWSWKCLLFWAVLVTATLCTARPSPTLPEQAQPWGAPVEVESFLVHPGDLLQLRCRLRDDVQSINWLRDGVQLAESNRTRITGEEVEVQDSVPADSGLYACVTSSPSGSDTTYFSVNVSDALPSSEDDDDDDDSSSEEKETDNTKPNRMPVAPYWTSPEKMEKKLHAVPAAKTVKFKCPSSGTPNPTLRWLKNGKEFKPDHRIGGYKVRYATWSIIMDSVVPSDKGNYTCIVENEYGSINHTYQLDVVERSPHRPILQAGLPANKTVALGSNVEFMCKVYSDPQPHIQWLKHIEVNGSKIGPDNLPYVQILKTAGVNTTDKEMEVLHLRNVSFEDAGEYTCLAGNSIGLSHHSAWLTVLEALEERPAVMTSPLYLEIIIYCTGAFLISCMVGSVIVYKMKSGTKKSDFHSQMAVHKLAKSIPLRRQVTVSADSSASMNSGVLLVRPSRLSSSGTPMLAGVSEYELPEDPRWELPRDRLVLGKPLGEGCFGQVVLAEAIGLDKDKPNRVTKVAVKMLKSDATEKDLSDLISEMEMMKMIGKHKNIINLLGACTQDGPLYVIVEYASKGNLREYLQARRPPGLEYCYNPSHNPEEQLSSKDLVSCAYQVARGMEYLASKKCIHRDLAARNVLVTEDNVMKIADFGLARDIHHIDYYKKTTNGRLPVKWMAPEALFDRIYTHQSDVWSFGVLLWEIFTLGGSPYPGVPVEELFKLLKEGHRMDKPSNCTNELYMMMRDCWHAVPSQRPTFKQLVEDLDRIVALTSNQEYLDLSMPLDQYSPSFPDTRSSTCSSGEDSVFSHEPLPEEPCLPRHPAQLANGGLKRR
Experiment: phosphorylation enrichment, bacterial display (enrichment ratio); higher = better substrate or ligand; peptides without Tyr show the background;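 note: 11-residue human phosphosite peptides and single-mutation variants displayed on the E. coli surface, counted by deep sequencing, each peptide's frequency after selection divided by its frequency in the unselected input library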;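 note: frequency after pTyr selection over input frequency; kinase dosed for 20-30% of maximal phosphorylation in three min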
Form field: phosphorylation enrichment (one value per entry).

>  <sequence-record>
ENAGYYFRVSA

>  <tested-target>
FGFR1 (UniProt P11362)

>  <phosphorylation enrichment>
0.508

$$$$
>  <sequence-record>
RCKNHYAAFSV [C1QTNF1_Y145_S143N]

>  <tested-target>
FGFR1 (UniProt P11362)

>  <phosphorylation enrichment>
0.488

$$$$
>  <sequence-record>
DPTNTYARPAE [SGMS2_Y24]

>  <tested-target>
FGFR1 (UniProt P11362)

>  <phosphorylation enrichment>
0.598

$$$$
>  <sequence-record>
ETGEPCRLSPE [EIF4G1_Y311_Y311C]

>  <tested-target>
FGFR1 (UniProt P11362)

>  <phosphorylation enrichment>
0.612

$$$$
>  <sequence-record>
QLPRGYISILV [BAG3_Y205_P209L]

>  <tested-target>
FGFR1 (UniProt P11362)

>  <phosphorylation enrichment>
0.589

$$$$
>  <sequence-record>
GFILMYDITNE [RAB3C_Y110]

>  <tested-target>
FGFR1 (UniProt P11362)

>  <phosphorylation enrichment>
0.49

$$$$
>  <sequence-record>
GRRGQYVMLSE [TTC7A_Y396]

>  <tested-target>
FGFR1 (UniProt P11362)

>  <phosphorylation enrichment>
0.506

$$$$
>  <sequence-record>
SDVDLYQVRIA [PSMD9_Y70_T74I]

>  <tested-target>
FGFR1 (UniProt P11362)

>  <phosphorylation enrichment>
0.598

$$$$
>  <sequence-record>
VVHSSYDEIEG [SEC24A_Y263]

>  <tested-target>
FGFR1 (UniProt P11362)

>  <phosphorylation enrichment>
0.493

$$$$

---

Biological target: MERTK (UniProt Q12866)
Sequence (Q12866 whole entry, looked up): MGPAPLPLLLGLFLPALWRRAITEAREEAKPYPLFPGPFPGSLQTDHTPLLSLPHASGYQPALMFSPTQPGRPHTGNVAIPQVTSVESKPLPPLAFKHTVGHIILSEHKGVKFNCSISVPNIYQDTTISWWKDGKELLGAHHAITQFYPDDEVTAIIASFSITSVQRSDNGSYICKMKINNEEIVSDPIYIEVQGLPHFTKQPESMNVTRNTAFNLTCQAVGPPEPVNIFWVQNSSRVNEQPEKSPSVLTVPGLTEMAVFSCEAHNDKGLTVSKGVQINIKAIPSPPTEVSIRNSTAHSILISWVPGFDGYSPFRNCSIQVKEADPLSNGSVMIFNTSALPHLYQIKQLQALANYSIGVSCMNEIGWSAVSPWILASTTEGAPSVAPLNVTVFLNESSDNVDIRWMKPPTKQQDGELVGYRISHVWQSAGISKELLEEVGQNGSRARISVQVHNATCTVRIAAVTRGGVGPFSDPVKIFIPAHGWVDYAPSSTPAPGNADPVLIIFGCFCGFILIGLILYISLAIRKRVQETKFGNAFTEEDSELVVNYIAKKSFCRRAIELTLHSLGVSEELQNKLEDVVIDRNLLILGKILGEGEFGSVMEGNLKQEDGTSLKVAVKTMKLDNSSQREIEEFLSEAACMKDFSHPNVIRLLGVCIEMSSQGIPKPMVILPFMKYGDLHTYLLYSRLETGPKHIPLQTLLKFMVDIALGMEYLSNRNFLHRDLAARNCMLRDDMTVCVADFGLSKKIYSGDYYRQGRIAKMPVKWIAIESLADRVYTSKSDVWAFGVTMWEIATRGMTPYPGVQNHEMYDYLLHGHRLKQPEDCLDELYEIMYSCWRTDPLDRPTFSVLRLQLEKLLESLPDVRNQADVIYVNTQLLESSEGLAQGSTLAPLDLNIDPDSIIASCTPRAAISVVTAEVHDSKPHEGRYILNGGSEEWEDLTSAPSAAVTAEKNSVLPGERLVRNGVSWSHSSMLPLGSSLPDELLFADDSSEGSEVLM
Assay: phosphorylation enrichment, bacterial display (enrichment ratio); higher = better substrate or ligand; peptides without Tyr show the background
measurement-label: phosphorylation enrichment

>  <sequence-record>
DRPASYKKKSM [PDGFRA_Y768]

>  <assay-result>
0.418

$$$$
>  <sequence-record>
LIGRGYDDPEV [HSPA9_Y128_R127G]

>  <assay-result>
0.602

$$$$
>  <sequence-record>
SPDMLYQYLKQ [RPAP3_Y567]

>  <assay-result>
7.39

$$$$
>  <sequence-record>
PFSNSYENSLI [EPOR_Y489_P488S_YF]

>  <assay-result>
0.402

$$$$
>  <sequence-record>
KMGNIYRTEYG [MRPL3_Y265]

>  <assay-result>
0.539

$$$$
>  <sequence-record>
PLYRKYWPNHI [GREB1L_Y1560]

>  <assay-result>
0.708

$$$$
>  <sequence-record>
VMLENYSNLLS [ZFP69_Y109_V113L]

>  <assay-result>
0.388

$$$$
>  <sequence-record>
ANARMYGVLPW [PLP1_Y207_D203N]

>  <assay-result>
0.734

$$$$
>  <sequence-record>
EKIANYKEGTF [CLRN1_Y171_YF]

>  <assay-result>
0.498

$$$$
>  <sequence-record>
CEHRGCLYLAI [TEK_Y897_Y897C]

>  <assay-result>
0.661

$$$$
>  <sequence-record>
AGQEEYSAMRD [HRAS_Y64]

>  <assay-result>
0.418

$$$$
>  <sequence-record>
ADEEEYEIIAA [FEStide_E_2014]

>  <assay-result>
0.564

$$$$
>  <sequence-record>
VDGFVYKLHPS [GCK_Y413_S411F]

>  <assay-result>
0.288

$$$$
>  <sequence-record>
EEGNPYFSSAR [MCCC2_Y520_YF]

>  <assay-result>
0.462

$$$$
>  <sequence-record>
SGTYQYIIAKF [FOXL2_Y83_I80T]

>  <assay-result>
5.26

$$$$
>  <sequence-record>
FADIAYNFRHG [PAH_Y166_YF]

>  <assay-result>
0.428

$$$$
>  <sequence-record>
EWQQIYTYDSG [JUP_Y20_T19I]

>  <assay-result>
7.85

$$$$
>  <sequence-record>
VFFFSYLLKNH [PTEN_Y180_YF]

>  <assay-result>
0.362

$$$$
>  <sequence-record>
NPQKSCFIRLF [WAS_Y83_Y83C_YF]

>  <assay-result>
0.467

$$$$
>  <sequence-record>
GCRSKHVGLWG [KCNQ1_Y184_Y184H]

>  <assay-result>
0.397

$$$$
>  <sequence-record>
WVYNHYRWFIW [BRCA2_Y2624_I2627F]

>  <assay-result>
0.418

$$$$
>  <sequence-record>
ADPQEYIPLPA [JAKtide_2014]

>  <assay-result>
0.425

$$$$
>  <sequence-record>
DVFVSYDFGKS [SORL1_Y139_YF]

>  <assay-result>
0.437

$$$$
>  <sequence-record>
SGPRRYTIAAL [TTR_Y125]

>  <assay-result>
0.428

$$$$
>  <sequence-record>
QQTYTYDSGIH [JUP_Y22]

>  <assay-result>
3.33

$$$$
>  <sequence-record>
FAKSVYWDNTL [NUP107_Y296_E298D_YF]

>  <assay-result>
0.725

$$$$
>  <sequence-record>
RLLRGYNQSAY [HLA-C_Y137_D138N]

>  <assay-result>
0.275

$$$$
>  <sequence-record>
VEDPEYAVTQP [STOML2_Y124_L129P]

>  <assay-result>
0.473

$$$$

---

Target: EPHB1 (UniProt P54762)
Sequence (P54762 whole entry, looked up): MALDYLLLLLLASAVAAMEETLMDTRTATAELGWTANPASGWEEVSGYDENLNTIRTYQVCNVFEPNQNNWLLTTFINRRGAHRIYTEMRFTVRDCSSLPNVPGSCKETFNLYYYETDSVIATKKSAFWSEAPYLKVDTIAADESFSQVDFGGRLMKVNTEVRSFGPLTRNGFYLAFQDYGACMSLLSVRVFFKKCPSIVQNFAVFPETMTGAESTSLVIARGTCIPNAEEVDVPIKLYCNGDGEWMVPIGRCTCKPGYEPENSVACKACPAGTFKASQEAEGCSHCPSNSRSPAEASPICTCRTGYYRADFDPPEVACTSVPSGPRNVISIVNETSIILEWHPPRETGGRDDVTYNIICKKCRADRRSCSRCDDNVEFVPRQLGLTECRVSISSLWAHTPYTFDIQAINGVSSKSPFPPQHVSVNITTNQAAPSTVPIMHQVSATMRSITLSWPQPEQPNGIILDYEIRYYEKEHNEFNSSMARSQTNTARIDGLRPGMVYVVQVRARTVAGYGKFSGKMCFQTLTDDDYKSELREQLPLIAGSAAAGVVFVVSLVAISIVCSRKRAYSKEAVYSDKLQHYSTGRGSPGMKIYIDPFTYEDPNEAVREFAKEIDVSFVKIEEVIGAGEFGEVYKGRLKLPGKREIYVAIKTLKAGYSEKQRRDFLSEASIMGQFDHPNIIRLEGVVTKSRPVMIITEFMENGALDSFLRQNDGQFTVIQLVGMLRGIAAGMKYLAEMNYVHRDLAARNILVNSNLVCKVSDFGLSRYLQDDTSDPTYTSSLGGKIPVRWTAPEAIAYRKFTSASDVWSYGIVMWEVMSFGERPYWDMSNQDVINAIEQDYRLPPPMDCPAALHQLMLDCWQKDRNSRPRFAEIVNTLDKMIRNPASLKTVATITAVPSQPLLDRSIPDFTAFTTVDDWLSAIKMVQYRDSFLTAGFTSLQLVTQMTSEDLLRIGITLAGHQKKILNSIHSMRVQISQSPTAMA
Assay: phosphorylation enrichment, bacterial display (enrichment ratio); higher = better substrate or ligand; peptides without Tyr show the background
Rule: 1 for phosphorylation enrichment not less than 0.7, -1 for anything less.

>  <sequence-record>
EVTLTYATGTK [NFKB1_Y485]

>  <answer-label>
-1

$$$$
>  <sequence-record>
LTEEKYELKEG [TREM1_Y29]

>  <answer-label>
1

$$$$
>  <sequence-record>
EELLRYAIVTP [POC5_Y37_H36R]

>  <answer-label>
-1

$$$$
>  <sequence-record>
LVMFTYAIFGM [SCN1A_Y1684_I1683T]

>  <answer-label>
1

$$$$
>  <sequence-record>
NFDRIYIFHLR [MYOF_Y1137_V1136I_YF]

>  <answer-label>
1

$$$$
>  <sequence-record>
PSSNLYYRCLT [CNGA3_Y168_W171C]

>  <answer-label>
1

$$$$
>  <sequence-record>
SSSAIYDNPNL [DCP1B_Y191]

>  <answer-label>
1

$$$$
>  <sequence-record>
KQRKEYMHRWQ [IQGAP2_Y710_R714W]

>  <answer-label>
-1

$$$$
>  <sequence-record>
FSAPNCCFRCG [PPP2CA_Y265_Y265C_YF]

>  <answer-label>
-1

$$$$
>  <sequence-record>
DFTSRYLNASD [PKHD1_Y828]

>  <answer-label>
-1

$$$$
>  <sequence-record>
EQSGSYIWVPA [DLG1_Y895]

>  <answer-label>
1

$$$$
>  <sequence-record>
PVDNLYAEPAV [PRPS1_Y146]

>  <answer-label>
1

$$$$
>  <sequence-record>
SKNSKYNAEST [PSEN1_Y315]

>  <answer-label>
-1

$$$$
>  <sequence-record>
ADARMYGVLPW [PLP1_Y207]

>  <answer-label>
1

$$$$
>  <sequence-record>
LFFFSYLLKNH [PTEN_Y180_V175L_YF]

>  <answer-label>
-1

$$$$
>  <sequence-record>
VMVCAYLLHRG [PTEN_Y138_I135V]

>  <answer-label>
-1

$$$$
>  <sequence-record>
KAIMTYVSSFY [ACTN4_Y260]

>  <answer-label>
-1

$$$$
>  <sequence-record>
VNRSGYTLIRK [ATP6V0A2_Y688]

>  <answer-label>
-1

$$$$

---

Target: Fes (UniProt P07332)
Sequence (P07332 whole entry, looked up): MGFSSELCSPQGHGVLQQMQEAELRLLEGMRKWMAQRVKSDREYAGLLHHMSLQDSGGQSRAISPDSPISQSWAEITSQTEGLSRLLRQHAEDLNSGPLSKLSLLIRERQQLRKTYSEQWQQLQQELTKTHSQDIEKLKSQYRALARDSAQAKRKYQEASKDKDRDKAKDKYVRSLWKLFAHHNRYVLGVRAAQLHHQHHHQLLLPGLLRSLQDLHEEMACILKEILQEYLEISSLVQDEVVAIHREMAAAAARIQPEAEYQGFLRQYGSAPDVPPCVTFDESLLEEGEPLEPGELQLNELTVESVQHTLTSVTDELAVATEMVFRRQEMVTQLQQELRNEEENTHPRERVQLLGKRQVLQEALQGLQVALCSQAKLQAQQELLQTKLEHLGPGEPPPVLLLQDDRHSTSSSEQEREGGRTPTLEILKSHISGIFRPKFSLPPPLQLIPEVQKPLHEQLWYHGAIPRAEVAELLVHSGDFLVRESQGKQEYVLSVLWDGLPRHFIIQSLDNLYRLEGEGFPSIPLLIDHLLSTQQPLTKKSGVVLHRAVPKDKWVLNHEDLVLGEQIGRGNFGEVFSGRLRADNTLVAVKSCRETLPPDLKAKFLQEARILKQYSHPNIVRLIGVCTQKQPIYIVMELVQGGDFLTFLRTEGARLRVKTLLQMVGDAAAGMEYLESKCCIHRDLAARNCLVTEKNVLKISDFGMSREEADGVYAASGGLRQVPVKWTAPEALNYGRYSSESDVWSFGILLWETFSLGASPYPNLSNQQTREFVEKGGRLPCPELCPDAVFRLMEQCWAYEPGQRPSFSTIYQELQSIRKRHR
Assay: phosphorylation enrichment, bacterial display (enrichment ratio); higher = better substrate or ligand; peptides without Tyr show the background
Classification field: enter t for phosphorylation enrichment values not below 1, f for values below it.

>  <sequence-record>
CDTKLYTSAPN [DNTTIP2_Y427]

>  <answer-label>
t

$$$$
>  <sequence-record>
GTSLIYWILFT [G6PC3_Y214_T216I]

>  <answer-label>
t

$$$$
>  <sequence-record>
ILGRYYERGSI [PAX5_Y73_T75R]

>  <answer-label>
f

$$$$
>  <sequence-record>
GGKFSYLKVGH [GRM3_Y480_YF]

>  <answer-label>
f

$$$$
>  <sequence-record>
PRQRRYVFFFS [PTEN_Y174_S170R_YF]

>  <answer-label>
f

$$$$
>  <sequence-record>
SVTCTYYPALN [TP53_Y126_S127Y]

>  <answer-label>
t

$$$$
>  <sequence-record>
LVSCAYQMARG [FGFR1_Y605_V607M]

>  <answer-label>
t

$$$$
>  <sequence-record>
ERCAQYKKDGA [ALDOA_Y138]

>  <answer-label>
f

$$$$
>  <sequence-record>
EKIANYKEGTF [CLRN1_Y171_YF]

>  <answer-label>
f

$$$$
>  <sequence-record>
EVTLTYATGTK [NFKB1_Y485]

>  <answer-label>
t

$$$$
>  <sequence-record>
FAKSVYWDNTL [NUP107_Y296_E298D_YF]

>  <answer-label>
t

$$$$
>  <sequence-record>
IVEELYAIPPD [PEAK1_Y797_S792I]

>  <answer-label>
t

$$$$
>  <sequence-record>
RNNIEYVRDIG [MUSK_Y577]

>  <answer-label>
f

$$$$
>  <sequence-record>
PQEVTYAQLDH [KIR3DL2_Y398]

>  <answer-label>
t

$$$$
>  <sequence-record>
DGNTRYSTFSE [TKTL1_Y318_D315N]

>  <answer-label>
f

$$$$

All figures here come from the supplement of paper PMC10065799.
